Numbers sourced from patent US20180296456A1.

test_description: MTT cell proliferation assay, melanoblasts
Assay type: cell-based, human
condition_label: human, 300 μM, MTT, 72 h, read-out: melanoblast proliferation rate after 72 hours
Peptide text beside a SMILES is read from it.
recorded_endpoint: viability at 72 h, 300 µM (%)
Respond with the bare value in %.

compound | viability at 72 h, 300 µM (%)
CCCCCCCCCCCCCCCC(=O)N[C@@H](Cc1ccc(O)cc1)C(=O)N[C@@H](CCCNC(=N)N)C(=O)N[C@@H](CO)C(=O)N[C@@H](CCCNC(=N)N)C(=O)N[C@@H](CCCCN)C(=O)N[C@@H](Cc1ccc(O)cc1)C(=O)N[C@@H](CO)C(=O)N[C@@H](CO)C(=O)N[C@@H](Cc1c[nH]c2ccccc12)C(=O)N[C@@H](Cc1ccc(O)cc1)C(N)=O [P4A, Palmitoyl-YRSRKYSSWY-amide] (HELM PEPTIDE1{[CCCCCCCCCCCCCCCC(=O)[*:2]].Y.R.S.R.K.Y.S.S.W.Y.[am]}$$$$V2.0) | 97

Let's switch to this compound now.
Request: Any idea what its viability at 72 h, 300 µM is? The compound is CCCCCCCCCCCCCCCC(=O)N[C@@H](Cc1ccc(O)cc1)C(=O)N[C@@H](CCCNC(=N)N)C(=O)N[C@@H](CO)C(=O)N[C@@H](CCCNC(=N)N)C(=O)N[C@@H](CCCCN)C(=O)N[C@H](Cc1ccc(O)cc1)C(=O)N[C@@H](CO)C(=O)N[C@@H](CO)C(=O)N[C@@H](Cc1c[nH]c2ccccc12)C(=O)N[C@@H](Cc1ccc(O)cc1)C(N)=O [P4B, Palmitoyl-YRSRK[*Y]SSWY-amide] (HELM PEPTIDE1{[CCCCCCCCCCCCCCCC(=O)[*:2]].Y.R.S.R.K.[dY].S.S.W.Y.[am]}$$$$V2.0)
Result: 96

====

Below: a set of entries, each annotated with reported viability at 72 h, 300 µM.
test_description: MTT cell proliferation assay, fibroblasts
Assay type: cell-based, human
condition_label: human, 300 μM, MTT, 72 h, read-out: fibroblast proliferation rate after 72 hours
Ends that are not written are not given here.
Give just the number in %; leave the unit off.

substance | viability at 72 h, 300 µM, %
Ac-YRSRKYSSWY-NH2 [P4C, Acetyl-YRSRKYSSWY-amide] | 97

// below: viability at 72 h, 300 µM requested for another substance
Request: // returns reported viability at 72 h, 300 µM for input YRSRKYSSWY [decapeptide-12, YRSRKYSSWY]
Result: 97

====

test_description: Trypan blue cell viability, 7 days, melanoblasts
Assay type: cell-based
condition_label: human, 1000 μM, relative to control, read-out: melanoblast viability after 7 days
Peptide text beside a SMILES is read from it.
recorded_endpoint: viability at 168 h, 1000 µM (%)
Just the number please, in %, no unit attached.

compound | recorded_endpoint | observed
CCCCCCCCCCCCCCCC(=O)N[C@@H](Cc1ccc(O)cc1)C(=O)N[C@@H](CCCNC(=N)N)C(=O)N[C@@H](CO)C(=O)N[C@@H](CCCNC(=N)N)C(=O)N[C@@H](CCCCN)C(=O)N[C@H](Cc1ccc(O)cc1)C(=O)N[C@@H](CO)C(=O)N[C@@H](CO)C(=O)N[C@@H](Cc1c[nH]c2ccccc12)C(=O)N[C@@H](Cc1ccc(O)cc1)C(N)=O [P4B, Palmitoyl-YRSRK[*Y]SSWY-amide] (HELM PEPTIDE1{[CCCCCCCCCCCCCCCC(=O)[*:2]].Y.R.S.R.K.[dY].S.S.W.Y.[am]}$$$$V2.0) | viability at 168 h, 1000 µM | 93.8

Now for another entry.
Request: I would be grateful if you could share the reported viability at 168 h, 1000 µM for CCCCCCCCCCCCCCCC(=O)N[C@@H](Cc1ccc(O)cc1)C(=O)N[C@@H](CCCNC(=N)N)C(=O)N[C@@H](CO)C(=O)N[C@@H](CCCNC(=N)N)C(=O)N[C@@H](CCCCN)C(=O)N[C@@H](Cc1ccc(O)cc1)C(=O)N[C@@H](CO)C(=O)N[C@@H](CO)C(=O)N[C@@H](Cc1c[nH]c2ccccc12)C(=O)N[C@@H](Cc1ccc(O)cc1)C(N)=O [P4A, Palmitoyl-YRSRKYSSWY-amide] (HELM PEPTIDE1{[CCCCCCCCCCCCCCCC(=O)[*:2]].Y.R.S.R.K.Y.S.S.W.Y.[am]}$$$$V2.0) .
Result: 94.8

====

test_description: in vitro
Type: cell-based
condition_label: human, human epidermal progenitors
Procedure: Proliferation rates were determined using a TACS® MTT Cell Proliferation Kit (R&D systems, Minneapolis, Minn.). Cells were seeded at 2.5×10^4/well in 96-well plates in a humidified atmosphere with 5 percent CO2 at 37 degrees Celsius. […] Proliferation rates for three human cell lines (epidermal progenitors, melanoblasts, and fibroblasts) were determined using a TACS® MTT Cell Proliferation Kit. […]
Peptide text beside a SMILES is read from it.
Reported viability at 72 h, 50 µM values for a set of compounds

compound | viability at 72 h, 50 µM
CCCCCCCCCCCCCCCC(=O)N[C@@H](Cc1ccc(O)cc1)C(=O)N[C@@H](CCCNC(=N)N)C(=O)N[C@@H](CO)C(=O)N[C@@H](CCCNC(=N)N)C(=O)N[C@@H](CCCCN)C(=O)N[C@@H](Cc1ccc(O)cc1)C(=O)N[C@@H](CO)C(=O)N[C@@H](CO)C(=O)N[C@@H](Cc1c[nH]c2ccccc12)C(=O)N[C@@H](Cc1ccc(O)cc1)C(N)=O [P4A, Palmitoyl-YRSRKYSSWY-amide] (HELM PEPTIDE1{[CCCCCCCCCCCCCCCC(=O)[*:2]].Y.R.S.R.K.Y.S.S.W.Y.[am]}$$$$V2.0) | 97%

Request: Could you tell me which viability at 72 h, 50 µM is on file for CCCCCCCCCCCCCCCC(=O)N[C@@H](Cc1ccc(O)cc1)C(=O)N[C@@H](CCCNC(=N)N)C(=O)N[C@@H](CO)C(=O)N[C@@H](CCCNC(=N)N)C(=O)N[C@@H](CCCCN)C(=O)N[C@H](Cc1ccc(O)cc1)C(=O)N[C@@H](CO)C(=O)N[C@@H](CO)C(=O)N[C@@H](Cc1c[nH]c2ccccc12)C(=O)N[C@@H](Cc1ccc(O)cc1)C(N)=O [P4B, Palmitoyl-YRSRK[*Y]SSWY-amide] (HELM PEPTIDE1{[CCCCCCCCCCCCCCCC(=O)[*:2]].Y.R.S.R.K.[dY].S.S.W.Y.[am]}$$$$V2.0) ?
Result: 98%

====

Parameter: viability at 168 h, 30 µM. Scope: all listed entries.
test_description: Trypan blue cell viability, 7 days, epidermal progenitors
Assay type: cell-based
condition_label: human, 30 μM, relative to control, read-out: epidermal progenitor viability after 7 days
Protocol: The effect of each of the decapeptides upon cell viability was also tested. In particular, cells were incubated with the decapeptide at various concentrations and then counted for viability relative to the control (untreated cells) using trypan blue. Cytotoxicity was measured according to the following formula: [1−(# of cells in control−# of live cells in test sample)/# of cells in control]×100 percent.
Peptide text beside a SMILES is read from it.
Enter your answer as a number in %; do not include the unit.

molecule | reading_unit | viability at 168 h, 30 µM
CCCCCCCCCCCCCCCC(=O)N[C@@H](Cc1ccc(O)cc1)C(=O)N[C@@H](CCCNC(=N)N)C(=O)N[C@@H](CO)C(=O)N[C@@H](CCCNC(=N)N)C(=O)N[C@@H](CCCCN)C(=O)N[C@@H](Cc1ccc(O)cc1)C(=O)N[C@@H](CO)C(=O)N[C@@H](CO)C(=O)N[C@@H](Cc1c[nH]c2ccccc12)C(=O)N[C@@H](Cc1ccc(O)cc1)C(N)=O [P4A, Palmitoyl-YRSRKYSSWY-amide] (HELM PEPTIDE1{[CCCCCCCCCCCCCCCC(=O)[*:2]].Y.R.S.R.K.Y.S.S.W.Y.[am]}$$$$V2.0) | % | 98.2

Please turn your attention to the following entry.
Request: Quick one: viability at 168 h, 30 µM for CCCCCCCCCCCCCCCC(=O)N[C@@H](Cc1ccc(O)cc1)C(=O)N[C@@H](CCCNC(=N)N)C(=O)N[C@@H](CO)C(=O)N[C@@H](CCCNC(=N)N)C(=O)N[C@@H](CCCCN)C(=O)N[C@H](Cc1ccc(O)cc1)C(=O)N[C@@H](CO)C(=O)N[C@@H](CO)C(=O)N[C@@H](Cc1c[nH]c2ccccc12)C(=O)N[C@@H](Cc1ccc(O)cc1)C(N)=O [P4B, Palmitoyl-YRSRK[*Y]SSWY-amide] (HELM PEPTIDE1{[CCCCCCCCCCCCCCCC(=O)[*:2]].Y.R.S.R.K.[dY].S.S.W.Y.[am]}$$$$V2.0) ?
Result: 98.2

====

test_description: Trypan blue cell viability, 7 days, epidermal progenitors
Format: cell-based
condition_label: human, 500 μM, relative to control, read-out: epidermal progenitor viability after 7 days
Ends that are not written are not given here.
recorded_endpoint: viability at 168 h, 500 µM (%)
Record the value in %, omitting the unit from your answer.

Request: For YRSRKYSSWY [decapeptide-12, YRSRKYSSWY] , what is its reported viability at 168 h, 500 µM?
Result: 94.2

Request: I would be grateful if you could share the reported viability at 168 h, 500 µM for Ac-YRSRKYSSWY-NH2 [P4C, Acetyl-YRSRKYSSWY-amide] .
Result: 94.8
